Test system: HOP-62 NSCLC
procedure-text: NCI-60 one-dose screen, 48 h (100 = growth as untreated, 0 = no growth, -100 = all killed)
assay-context: 10 µM unless noted
This is part of a sample that, as a whole, favours compounds with a hit. Of some 83,000 tested, about 20% had one in any assay.
observable: growth (%)

molecule-smiles | observable | test-result
O=S(=O)(NCCNc1cc(-c2c(-c3cccc(O)c3)nc3sccn23)ccn1)c1ccc(Cl)cc1 | growth | 103
CC(=O)c1sc(-c2ccccc2)cc1N | growth | 94.4
N#Cc1c(NC(=O)c2ccc(Br)cc2)sc2c1CCCC2 | growth | 46.4
Clc1ccc(-c2nc(NCCc3ccccc3)nc3c(NCCc4ccccc4)cnn23)cc1 | growth | 85.3
NS(=O)(=O)Oc1ccc(NC(=O)C23CC4CC(CC(C4)C2)C3)cc1Cl | growth | 92.1
CCCc1nc2ccccn2c1Nc1ccc(C(=O)NO)cc1 | growth | 90.4
